Could you please report measured melting point for the items listed next?

Example entries begin here.
1) Cc1cc2c(-c3ccccc3)c(CC#N)n(C)c(=O)c2cc1C = 186 to 188 °C
2) CC(=O)Nc1cc(C(F)(F)F)ccc1-c1cc(Oc2ccc3cccnc3c2)ncn1 = 137 to 138 °C
3) CC(C)N=C(N=c1ccccn1CCc1ccccc1Br)NC(C)C = 125 to 128 °C
4) Nc1ccc(-c2ccc3nnn(Cc4ccc5ncccc5c4)c3n2)cn1 = 194 to 197 °C

Let's switch to this molecule now.
Determine its reported melting point: `C[C@]1(COc2ccc3cc(N4CCC(Oc5ccc(OC(F)(F)F)cc5)CC4)ccc3c2)Cn2cc([N+](=O)[O-])nc2O1` 205 to 208 °C

====

Could you please report measured melting point for the items listed next?

Example entries begin here.
1) Cc1noc2c1C(=O)C(CCCN1CCC(C(=O)c3ccc(F)cc3)CC1)CC2 (stereo not given) = 81 to 83 °C
2) COC(=O)C=C1NC(Cc2ccccc2)COC1=O (stereo not given) = 82 to 83 °C
3) CCOC(=O)c1cn(C2CC2)c2cc(-c3cc(C(F)(F)F)nc(C(F)(F)F)c3)c(F)cc2c1=O = 239 to 241 °C
4) CCCCOc1ccc(S(=O)(=O)C2(C(=O)NO)CCN(CC)CC2)cc1 = 98 °C
5) CCCc1nn(-c2ccc(C(F)(F)F)cn2)cc1CCCOc1cc(CC(=O)O)ccc1OC = 124 to 126 °C

Please supply melting point for each of the following items, keeping them in order.
1. O=CNc1csc(Cl)n1
2. Cn1nc(-c2c(Nc3ccccc3)nc(N)nc2-c2ccccc2)ccc1=O
3. CCCCCCCCc1ccc(CCC(CC)(CCOC(C)=O)NC(C)=O)cc1 (stereo not given)
4. Cc1cc(C)cc(C(=O)c2ccc(O)c(CC(=O)O)c2)c1
5. C[C@H](N)Cn1ncc2ccc(C(N)=O)cc21

1: 138 °C; 2: 252 to 254 °C; 3: 108 to 110 °C; 4: 242 °C; 5: 170 to 172 °C

====

Could you please report measured melting point for the items listed next?
Answers are plain numbers, in °C.

Example entries begin here.
1) c1ccc2c(c1)Cc1ccncc1N1OC(CN3CCOCC3)CC21 (centres undefined) = 46
2) O=C(NCCCCN1CCC(c2csc3ccccc23)CC1)c1ccc(-c2ccc(C(F)(F)F)cc2)cc1 = 264
3) CN1CCC(N(C)S(=O)(=O)c2ccc(Nc3nccc(Nc4cc(F)c(F)c(F)c4)n3)cc2)CC1 = 227

Let's switch to this molecule now.
Determine its reported melting point: `CCOC(=O)C(=CNc1ccc(OC)c(F)c1)C(=O)OCC` 63

====

Could you please report measured melting point for the items listed next?

Example entries begin here.
1. CCOC(=O)c1nnc2ccc(C#N)cc2c1O = 259 to 261 °C
2. COC(=O)Cc1ccc(O)c(NC(=O)c2c(C)c(OC)c(C)c(C)c2OC)c1 = 98 to 100 °C

Please supply melting point for each of the following items, keeping them in order.
1. CCCOc1ccc(S(=O)(=O)N2CCN(CCOC(=O)OCC)CC2)cc1-c1nc2c(CCC)cn(CC)c2c(=O)[nH]1
2. O=[N+]([O-])c1ccc2sc(CCl)cc2c1
3. COC(=O)C1CSc2sccc2C1=O (stereo not given)
4. CCOC(=O)c1cc(Cl)c(-n2ncc(C)n2)c(Cl)c1

1. 135 to 136 °C
2. 110 to 112 °C
3. 94 to 97 °C
4. 136 to 138 °C
